- assay-procedure: NCI Yeast Anticancer Drug Screen. Data for the sgs1 mgt1 strain (AID 161);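 further: 0% = growth of cultures given vehicle only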
- recorded-conditions: S. cerevisiae sgs1 mgt1 strain, at 50.0 µM, active compounds read high
About 79,000 compounds went through this panel and 15% of them were active in at least one assay; those are over-represented in the sample as a whole.
measured-metric: growth inhibition (%)

compound: CC(=O)OC1CCCc2c1nc1ccccc1[n+]2[O-] (stereo not given)
result-number: 0.5
--
compound: CC(C)/C(Cl)=N/OC(=O)Nc1ccc(OC(F)(F)F)cc1
result-number: 83.5
--
compound: COc1cccc(C2c3cc4c(cc3OC(O)C2C)OCO4)c1O (stereo not given)
result-number: -6.55
--
compound: CCN(CC)CCNc1cc(C)nc2c1ccc1c2ccc2c(NCCN(CC)CC)cc(C)nc21
result-number: 54.5
--
compound: O=c1ccc([N+](=O)[O-])c[nH]1.[Ag]
result-number: 99.1
--
compound: Cc1c2c(c(C)c3c1OC(C)(C)CC3)OC(C)(C)CC2
result-number: 62.2
--
compound: CCCCOCN(CC(CC)CCCC)CC(CC)CCCC (stereo not given)
result-number: 73.4
--
compound: O=C1/C(=C/c2ccc([N+](=O)[O-])cc2)Sc2scc(-c3cccc([N+](=O)[O-])c3)[n+]21
result-number: 90.6
--
compound: O=c1c2c3c(sc2nc2n1N=C(c1ccc(Br)cc1)CS2)CCCC3
result-number: -22.8
--
compound: CCCCCCCSCC1C(=O)C23CC1CCC2C12COC(O)C1C(C)(C)C(O)CC2OC3=O (stereo not given)
result-number: 92.2
--
compound: CC(C)n1nnc2ccccc2c1=Nc1ccccc1
result-number: 96.2
--
compound: Nn1c2ccccc2c2ccccc21
result-number: 8.1
--
compound: CCCN(CCC)c1ccc(Cc2ccc(N(CCC)CCC)cc2N)c(N)c1
result-number: 44.5
--
compound: c1ccc2c(c1)oc1cc3c(cc12)CCCN3
result-number: 74.7
--
compound: CCOC(=O)C(N=Nc1ccc(Br)c(C)c1)C(C)=O (stereo not given)
result-number: 98
--
compound: CSc1nc(NC2OC(CO)C(O)C(O)C2O)c(Cl)c(=O)[nH]1 (stereo not given)
result-number: 12.4
--
compound: CCCCCCCCCCCCCC[N+]1(CC)CCCCC1
result-number: 92.2
--
compound: CCN(CC)CCNc1ccc(OC)c2cccnc12
result-number: 99.3
--
compound: N#CC(C(=O)CCCC(=O)Nc1cccc([N+](=O)[O-])c1)c1cccc2ccccc12 (stereo not given)
result-number: 17.1
--
compound: CC(=O)c1sc2c(c1O)c(=O)n(-c1ccccc1)c(=S)n2-c1ccccc1
result-number: 75.5
--
compound: COc1ccc(C2CC(c3sc(Nc4ccc(C)cc4)nc3C)=NN2)cc1 (stereo not given)
result-number: 71.4
--
compound: C/C(=N\NC(N)=S)c1ccc(C2CCCCC2)cc1
result-number: 98.2
--
compound: COc1ccc2c(c1)C(=O)/C(=C/c1ccc([N+](=O)[O-])o1)CO2
result-number: 98.1
--
compound: COC12CC(=O)C(C(C)=O)=C(O)C1(C)c1c(OC(C)=O)c(C)c(O)c(C(C)=O)c1O2 (stereo not given)
result-number: 19.2
--
compound: CCC(c1ccc(O)cc1)C(CC)c1ccc(OCC(N)=O)cc1 (stereo not given)
result-number: 89.8
--
compound: COc1cccc2c1C(=O)c1c(O)c3c(c(O)c1C2=O)CC(O)(C(C)=O)CC3OC1OC(COC(C)=O)C(OC(C)=O)C(OC(C)=O)C1OC(C)=O (stereo not given)
result-number: 97.8
--
compound: Cc1ccc(-c2oc(C=Nc3ccccc3)c([N+](=O)[O-])c2-c2ccc(C)cc2)cc1
result-number: 70.9
--
compound: C(=N\NC1=NCCN1)/c1ccc(-c2cn3cc(/C=N/NC4=NCCN4)ccc3n2)cc1
result-number: 99.3
--
compound: CN1C(=S)C(=N)OC1c1ccccc1F (stereo not given)
result-number: 85.6
--
compound: CCN(CC)CCCNc1ccc([N+](=O)[O-])c2nc3ccc(OC)cc3c(N)c12
result-number: 79.2
--
compound: C=C1CC[C@@H]2C(C)(C)C(O)CCC2(C)C1COc1ccc2ccc(=O)oc2c1 (stereo not given in full)
result-number: 86.7
--
compound: C[N+]1(C)CCCC(OCCCCCCCCCCCCCCOC2CCC[N+](C)(C)C2)C1 (stereo not given)
result-number: 98.8
--
compound: Clc1ccccc1C=Nc1cccc2ccccc12
result-number: 27.1
--
compound: Fc1ccc2c(c1)Nc1cc(F)cc(F)c1S2
result-number: 65.7
--
compound: CCCCCCCCCCCCCC1OC(=O)C(C)=C1C(=O)O (stereo not given)
result-number: 47.5
--
compound: CCCCCCCC(=O)O[C@H]1[C@H]2[C@@H](CC1(C)C)C(=O)[C@]13O[C@H]1C(=O)[C@]1(CO1)[C@]23C
result-number: 92.7
--
compound: Cc1ccc2c(c1)[n+]([O-])c(N)n[n+]2[O-]
result-number: 57.1
--
compound: CCCC(C1=C(O)CC(C)CC1=O)C1=C(O)CC(C)CC1=O (stereo not given)
result-number: -5.6
--
compound: COC(=O)C1(Cc2ccccc2C)Cc2ccc(C)cc2C1=O (stereo not given)
result-number: 64.9
--
compound: Oc1cccc2ccc(/C=C/c3ccccn3)nc12
result-number: 98.2
--
compound: CC(C)(c1cc(Br)c(O)c(Br)c1)c1cc(Br)c(O)c(Br)c1
result-number: 87.9
--
compound: O=C(/C=C/c1ccccc1Cl)c1ccc(F)cc1
result-number: 53.8
--
compound: CN(C)C=Nc1ccc2nonc2c1
result-number: 3.4
--
compound: O=C(Nc1ccc(Cl)cc1)Nc1nnc(/C=C/c2ccc(Cl)c(Cl)c2)o1
result-number: 3.6
--
compound: Fc1ccc2nncc(SCc3ccccc3)c2c1
result-number: 93.2
